target: Recombinant HCV polymerase (Hepatitis C virus genotype 1b, UniProt P26663); construct: 2.5 pmoles (0.15 μg) HCV polymerase protein; assay: HCV Polymerase Inhibition Assay; format: biochemical; conditions: primer/template-directed transcription, 30 minutes at 30° C.; read-out: IC50(μM) Category
Sequence (P26663 2420-3010): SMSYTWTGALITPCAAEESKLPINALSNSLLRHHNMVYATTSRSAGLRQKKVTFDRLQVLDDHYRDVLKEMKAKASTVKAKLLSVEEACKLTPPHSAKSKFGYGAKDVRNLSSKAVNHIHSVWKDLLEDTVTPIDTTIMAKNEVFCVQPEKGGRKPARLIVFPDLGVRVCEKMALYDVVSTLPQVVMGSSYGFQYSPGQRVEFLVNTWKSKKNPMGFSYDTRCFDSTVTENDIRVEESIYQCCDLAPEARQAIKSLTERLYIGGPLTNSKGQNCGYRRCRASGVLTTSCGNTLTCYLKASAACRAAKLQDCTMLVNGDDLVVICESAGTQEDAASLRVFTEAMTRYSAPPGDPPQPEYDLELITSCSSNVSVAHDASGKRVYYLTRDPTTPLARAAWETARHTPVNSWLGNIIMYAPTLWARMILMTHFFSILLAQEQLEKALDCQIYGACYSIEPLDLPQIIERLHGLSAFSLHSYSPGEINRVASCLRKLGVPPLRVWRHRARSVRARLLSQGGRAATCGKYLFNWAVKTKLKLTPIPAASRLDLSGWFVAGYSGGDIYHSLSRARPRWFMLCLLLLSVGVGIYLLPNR

| compound | IC50 |
| --- | --- |
| Cc1cc(SC2=C(O)CC(C3CCCC3)(C3CCCC3)OC2=O)c(C(C)(C)C)cc1N | 15.5 µM |
| Cc1cc(SC2=C(O)CC(C3CCCC3)(C3CCCC3)OC2=O)c(C(C)(C)C)cc1OCCO | 36 µM |
| COc1ccc(CCC2(C3CCCC3)CC(=O)C(Cc3ccccc3)C(=O)O2)cc1Cl (stereo not shown) | 0.6 µM |
| Cc1cc(SC2=C(O)CC(C3CCCC3)(C3CCCC3)OC2=O)c(C(C)(C)C)cc1CO | 15 µM |

====

Recorded IC50 by entry
target: Recombinant HCV polymerase (Hepatitis C virus genotype 1b); construct: 2.5 pmoles (0.15 μg) HCV polymerase protein; test: HCV Polymerase Inhibition Assay; format: biochemical; conditions: primer/template-directed transcription, 30 minutes at 30° C.; category symbol

| compound | IC50 |
| --- | --- |
| CCN(C1=C(O)CC(CCc2ccc(O)cc2)(C2CCCC2)OC1=O)c1ccccc1 (stereo not drawn) [Example 160] | 1 to 10 µM |
| CC(=O)Nc1cc(C(C)(C)C)c(SC2=C(O)CC(CCc3ccc(O)cc3)(C3CCCC3)OC2=O)cc1C (racemic) [Example 140] | 1 to 10 µM |
| CC(=O)C1C(=O)CC(CCc2cccc(Cl)c2)(C2CCCC2)OC1=O (stereo not drawn) [Example 167] | 10 to 50 µM |
| O=C1C=C(O)CC(CCCc2ccccc2)(C2CCCC2)O1 (stereo not drawn) [Example 21] | > 50 µM |
| CCCOc1ccc(CCC2(C3CCCC3)CC(=O)CC(=O)O2)cc1F (stereo not drawn) [Example 72] | 1 to 10 µM |
| COc1cc(OC)c(CCC2(C3CCCC3)CC(O)=C(Sc3ccc(C(=O)O)cn3)C(=O)O2)cc1Cl (stereo not drawn) [Example 94] | < 1 µM |
| CC(C)COc1ccc(CCC2(C3CCCC3)CC(=O)CC(=O)O2)cc1F (stereo not drawn) [Example 70] | 1 to 10 µM |
| CC(C)c1cccc(CCC2(C3CCCC3)CC(=O)CC(=O)O2)c1 (stereo not drawn) [Example 9] | 1 to 10 µM |
| Cc1cc(SC2=C(O)CC(CCc3ccc(O)cc3)(C3CCCC3)OC2=O)c(C(C)(C)C)cc1C(N)=O (stereo not drawn) [Example 146] | 1 to 10 µM |
| COc1cc(OC)c(CCC2(C3CCCC3)CC(O)=C(Sc3nnc(-c4cccs4)n3C)C(=O)O2)cc1Cl (stereo not drawn) [Example 96] | < 1 µM |
| O=C1CC(=O)OC(CCc2ccc(O)cc2)(C2CCCC2)C1 (stereo not drawn) [Example 1] | 10 to 50 µM |
| COc1cc(CCC2(C3CCCC3)CC(O)=CC(=O)O2)ccc1O (stereo not drawn) [Example 19] | 1 to 10 µM |
| O=C1CC(=O)OC(CCc2ccc(C(=O)N3CCOCC3)cc2)(C2CCCC2)C1 (stereo not drawn) [Example 68] | > 50 µM |
| CCOc1ccc(CCC2(C3CCCC3)CC(=O)CC(=O)O2)cc1F (stereo not drawn) [Example 71] | < 1 µM |
| CC(C)Oc1ccc(CCC2(C3CCCC3)CC(=O)CC(=O)O2)cc1F (stereo not drawn) [Example 73] | < 1 µM |
| COc1cc(CCC2(C3CCCC3)CC(O)=CC(=O)O2)ccc1OCc1ccccc1 (stereo not drawn) [Example 20] | 1 to 10 µM |
| O=C1CC(=O)OC(CCc2ccc(Cl)c(Cl)c2)(C2CCCC2)C1 (stereo not drawn) [Example 53] | 1 to 10 µM |
| COC(=O)c1ccc(CCC2(C3CCCC3)CC(=O)CC(=O)O2)cc1 (stereo not drawn) [Example 65] | 1 to 10 µM |

====

biological target: Recombinant HCV polymerase (Hepatitis C virus genotype 1b); construct: 2.5 pmoles (0.15 μg) HCV polymerase protein; assay: HCV Polymerase Inhibition Assay; assay type: biochemical; conditions: primer/template-directed transcription, 30 minutes at 30° C.; category symbol
Recorded IC50 by entry
reported-property: IC50

| compound | endpoint-result |
| --- | --- |
| Cc1cc(SC2=C(O)CC(C)(C)OC2=O)c(C(C)(C)C)cc1N | > 50 µM |
| CC1(c2ccc(CCC3(C4CCCC4)CC(=O)CC(=O)O3)cc2F)OCCO1 (centres unmarked) | 1 to 10 µM |
| O=C1CC(=O)OC(CCc2cccc3ccccc23)(C2CCCC2)C1 (centres unmarked) | > 50 µM |
| CCOC(=O)c1cnc(SC2=C(O)CC(CCc3cc(Cl)c(OC)cc3OC)(C3CCCC3)OC2=O)[nH]1 (centres unmarked) | < 1 µM |
| CCOc1c(F)cc(CCC2(C3CCCC3)CC(=O)CC(=O)O2)cc1F (centres unmarked) | 1 to 10 µM |
| O=C1OC(CCc2ccc(O)cc2)(C2CCCC2)CC(O)=C1N(c1ccccc1)c1ccccc1 (centres unmarked) | 1 to 10 µM |
| COc1cc(OC)c(CCC2(C3CCCC3)CC(O)=C(Sc3nc4ccc(C(=O)O)cc4[nH]3)C(=O)O2)cc1Cl (centres unmarked) | < 1 µM |
| O=C1OC(CCc2ccc(OCc3ccccc3)cc2)(C2CCCC2)CC(O)=C1Sc1cccc2ccccc12 (centres unmarked) | 1 to 10 µM |

====

Recorded melting point by entry

| molecule | melting point |
| --- | --- |
| CCCN(C1=C(O)CC(CCc2ccc(O)cc2)(C2CCCC2)OC1=O)c1ccccc1 (stereo not shown) [Example 159] | 95 °C |
| Cc1cc(SC2=C(O)CC(CCc3ccc(O)cc3)(C3CCCC3)OC2=O)c(C(C)(C)C)cc1OCCO (stereo not shown) [Example 148] | 113 to 115 °C |
| CCCN(C1=C(O)CC(C2CCCC2)(C2CCCC2)OC1=O)c1cccc(NS(=O)(=O)c2cccs2)c1 [Example 186] | 92 to 95 °C |
| Cc1cc(SC2=C(O)CC(C3CCCC3)(C3CCCC3)OC2=O)c(C(C)(C)C)cc1CO [Example 180] | 158 to 160 °C |

====

target: Recombinant HCV polymerase (Hepatitis C virus genotype 1b, UniProt P26663); construct: 2.5 pmoles (0.15 μg) HCV polymerase protein; experiment: HCV Polymerase Inhibition Assay; assay type: biochemical; conditions: primer/template-directed transcription, 30 minutes at 30° C.; category symbol
Recorded IC50 by entry
reported-property: IC50

| molecule | reported-property | endpoint-result |
| --- | --- | --- |
| Cc1cc(SC2=C(O)CC(C3CCCC3)(C3CCCC3)OC2=O)c(C(C)(C)C)cc1OS(=O)(=O)c1cn(C)cn1 [Example 182] | IC50 | 10 to 50 µM |
| COc1cccc(CC2C(=O)CC(CCc3ccc(OC)cc3OC)(C3CCCC3)OC2=O)c1 (stereo not drawn) [Example 162] | IC50 | 1 to 10 µM |
| COc1ccc(CCC2(C3CCCC3)CC(O)=C(Sc3ccccc3)C(=O)O2)cc1Cl (stereo not drawn) [Example 102] | IC50 | < 1 µM |
| COc1ccc(CCC2(C3CCCC3)CC(O)=C(Sc3n[nH]c(-c4ccncc4)n3)C(=O)O2)cc1 (stereo not drawn) [Example 111] | IC50 | < 1 µM |
| O=C1CC(=O)OC(CCc2ccccc2)(C2CCCC2)C1 (stereo not drawn) [Example 35] | IC50 | 10 to 50 µM |
| Cc1cc(SC2=C(O)CC(CCc3ccc(O)cc3)(C3CCCC3)OC2=O)c(C(C)(C)C)cc1CO (stereo not drawn) [Example 133] | IC50 | < 1 µM |
